target: Myeloperoxidase (Homo sapiens) (UniProt P05164); test: Inhibition of chlorinating activity of recombinant myeloperoxidase at 0.5 uM by taurine assay
The following compounds are shown together with reported inhibition values.
Answers without a unit are incomplete; give the number and then its unit.

| compound | inhibition |
| --- | --- |
| O=C(CCCO)Nc1ccc(C(=O)O)c(Nc2cccc(C(F)(F)F)c2)c1 | 8.5% |

Fill in inhibition for record O=C(O)c1ccccc1Nc1cccc(C(F)(F)F)c1 [FLUFENAMIC ACID] 25%

Fill in inhibition for record O=C(O)c1cc(Cl)ccc1Nc1cccc(C(F)(F)F)c1 29%

Fill in inhibition for record O=C(O)c1cc(F)ccc1Nc1cccc(C(F)(F)F)c1 37%

Fill in inhibition for record O=C(O)c1ccc([N+](=O)[O-])cc1Nc1cccc(C(F)(F)F)c1 29%

Fill in inhibition for record O=C(O)/C=C/C(=O)Nc1ccc(C(=O)O)c(Nc2cccc(C(F)(F)F)c2)c1 0.3%

====

molecular target: UniProtKB P05164; test: Inhibition of chlorinating activity of recombinant myeloperoxidase by taurine assay
property: IC50 (µM)
The reply should be a number in µM, with the unit left off.

| structure smiles string | IC50, µM |
| --- | --- |
| O=C(O)c1ccccc1Nc1cccc(C(F)(F)F)c1 | 1.8 |
| O=C(O)c1ccc([N+](=O)[O-])cc1Nc1cccc(C(F)(F)F)c1 | 5 |

Now, please, on to the next compound.
Fill in IC50 for record CC(=O)Nc1ccc(C(=O)O)c(Nc2cccc(C(F)(F)F)c2)c1 14

====

Target: Myeloperoxidase (Homo sapiens, UniProt P05164)
Sequence (P05164 whole entry): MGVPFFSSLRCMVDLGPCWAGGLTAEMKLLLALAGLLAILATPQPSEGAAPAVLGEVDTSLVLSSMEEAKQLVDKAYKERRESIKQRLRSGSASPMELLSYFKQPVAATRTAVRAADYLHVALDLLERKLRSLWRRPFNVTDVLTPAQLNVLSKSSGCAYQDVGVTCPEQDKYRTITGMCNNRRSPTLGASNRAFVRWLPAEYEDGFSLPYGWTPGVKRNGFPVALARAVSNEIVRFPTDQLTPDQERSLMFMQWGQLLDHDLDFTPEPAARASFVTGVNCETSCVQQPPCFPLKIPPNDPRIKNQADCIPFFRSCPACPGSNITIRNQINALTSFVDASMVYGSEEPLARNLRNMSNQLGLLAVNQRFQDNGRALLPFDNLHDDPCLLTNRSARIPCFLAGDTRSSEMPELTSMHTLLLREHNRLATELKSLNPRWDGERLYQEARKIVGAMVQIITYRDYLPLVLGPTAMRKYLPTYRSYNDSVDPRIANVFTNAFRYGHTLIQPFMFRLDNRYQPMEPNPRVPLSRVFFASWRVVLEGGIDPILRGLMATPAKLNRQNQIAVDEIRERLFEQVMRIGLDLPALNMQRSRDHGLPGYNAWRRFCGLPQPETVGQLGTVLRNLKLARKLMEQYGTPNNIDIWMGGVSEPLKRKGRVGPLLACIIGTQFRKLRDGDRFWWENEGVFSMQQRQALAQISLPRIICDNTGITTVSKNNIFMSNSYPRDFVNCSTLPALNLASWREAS
Experiment: Inhibition of chlorinating activity of recombinant myeloperoxidase by taurine assay
property: IC50

Examples with their reported IC50 follow.
| structure smiles string | property | result |
| --- | --- | --- |
| O=C(O)/C=C/C(=O)Nc1ccc(C(=O)O)c(Nc2cccc(C(F)(F)F)c2)c1 | IC50 | > 100 µM |
| O=C(O)c1cccc(Nc2cccc(C(F)(F)F)c2)c1C(=O)O | IC50 | > 100 µM |

Now, please, on to the next molecule.
Fill in IC50 for record O=C(CCCO)Nc1ccc(C(=O)O)c(Nc2cccc(C(F)(F)F)c2)c1 > 100 µM
